Reference for the values: ChEMBL document CHEMBL3232871

ASSAY PROTOCOL: Cytotoxicity against human TZM-bl cells by Cell Titer Blue cell viability assay
Format: cell-based
ENDPOINT: Activity

NC(=O)n1nc(-c2ccc([N+](=O)[O-])cc2)c(/N=N/c2cccnc2)c1O = Non-toxic
COc1ccc(-c2nn(C(N)=S)c(O)c2/N=N/c2cccc(Cl)c2)cc1 = Non-toxic
NC(=S)n1nc(-c2ccc(C(F)(F)F)cc2)c(/N=N/c2cccc(Cl)c2)c1O = Non-toxic
NC(=S)n1nc(-c2ccc([N+](=O)[O-])cc2)c(/N=N/c2cncc(Cl)c2)c1O = Non-toxic
